assay: yeast display, Sf9 membrane polyspecificity reagent, FACS + sequencing; frameworks hold sequencing errors
MEASUREMENT_TYPE: polyreactivity (PSR sort gate)

• QVQLVESGGGLVQAGGSLRLSCAASGSTFVWYAMGWYRQAPGKEREFVATISWSDGSTYYADSVKGRFTISRDNAKNTVYLQMNSLKPEDTAVYYCASDVDRFFTYKYDYWGQGTQVTVSS = low polyreactivity
• QVQLVESGGGLVQAGGSLRLSCAASVIIFYPYAMGWSRQAPGKEMELVAAITARSANTYYADSVKGRFTISRDNAKNTVYLQMNSLKPEDTAVYYCAAAIYSYRTPYYYWGQGTQVTVSS = high polyreactivity
• QVQLVESGGGLVQAGGSLRLSCAASGLTIGSNVMGWYRQAPGKERELVAAISQSGGRTYYADSVKGRFTISRDNAKNTVYLQMNSLKQEDTAVYYCAKRLRSFYGRPMGDYWGQGTQVTVSS = high polyreactivity
• QGQLVESGGGLVQAGGSLRLSCAASGFNFRRYAMGWYRHAPGKERELVAVITSGGSTYYADSVKGRFTISRDYAKNTVYLQMNSLKPEDTAVYYCASRYYWYSQEYVLSSWWGDYWGLGTQVTVSS = high polyreactivity
• QVQLVESGGGLVQAGGSLRLSCAASGSIFDVYGMGWYRQAPGKEREFVADITSRGTRTYYADSVKGRFTISRDNAKNTVYLQMNSLKPEDTAVYYCNTLVGVDFWLVDYWGQGTQVTLSS = low polyreactivity
• QVQLVESGGGLLQAGGSLRLSCAASGRTFGSYAKGWYRQAPGKERELVAGIRSDDITHYADSVKGRFTISRDNAKNTVYLQMNSLKPEDTAVYYCAKDYKCIATEGAFDYWGQGTQVTVSS = low polyreactivity
• QVQLVESVGGLVLAGASLRLSCAASGSTYAPNAMGWYRQAPGKERELVAVITSGDSTYYAVSVKGRFTISRDNAKNTVYLQMNSLKPEDTAVYYCASETYGTPGYYYWGQGTQVTVSS = low polyreactivity
• QVQLVESGGGLVQAGGSLRLSCAASGSTFVGYAMGWYRQAPGKERELVAAISYSGGSTYYADSVKGRFTISRDNAKNTVYLQMNSLKPEDTAVYYCAAEWSRHYYYGPRYDYWGQGTQVTVSS = low polyreactivity

Qu. For the sequence QVQLVESGGGLVQAGGSLRLSCAASGSTFDIYPMGWYRQAPGKERELVAAISWSGGRTYYADSVKGRFTISRDNAKNTVYLQMNSLKPEDTAVYYCAAVNKSGTYVEYDYWGQGTQVTVSS , give its measured polyreactivity (PSR sort gate) value.
Ans. low polyreactivity

Qu. Give the value of polyreactivity (PSR sort gate) reported for the following: QVQLVESGGGLVQAGGSLRLSCAASGSIFLVNAMGWYRQAPGKERELVAAINSGGSTYYADSVKGRFTISRDNAKNTVYLQMNSLKPEDTAVYYCAADFWLKVWQDTDYDYDYWGQGTQVTVSS
Ans. low polyreactivity

Qu. Consider the sequence QVQLVESGGGLVQAGGSLRLSCAASGLIFADYTMGWYRQAPGKERELVAVITDGDSTYYADSVKGRFTISRDNAKNTVYLQMNSLKPEDTAVYYCAAELDGSNYTLDYWGLGTQVTVSS and give its recorded polyreactivity (PSR sort gate).
Ans. low polyreactivity

Qu. Answer with the recorded polyreactivity (PSR sort gate) for the sequence listed here: QVQLVESGAGLVQAGGSLRLSCAPSGRTFGYNAMGWYRQAPGKERELVATISSSTVSTSYADSVKGRFTISRDNAKNTVYLQMNSLKPEDTAVYYCNARSRVSPTERVPYDSWGHGTQVTVSS
Ans. low polyreactivity

Qu. Let me know recorded polyreactivity (PSR sort gate) for QVQLVESGGGLVQAGGSLRLSCAASGMIFKYYVMGWYRKAPGKERELVDDIRCSGGITSYADSVKGRFTISRDNAKNTVYLQMNSLKPEDTAVYYCAVAHSRLRTAYTFSVQRYDYWGQGTQVTVSS , thanks.
Ans. low polyreactivity

Qu. Give a short answer stating reported polyreactivity (PSR sort gate) for QVQLVESGGGLVQAGGSLRLSCAASGFIFSRYVMGWYRQAPGKEREFVAAISSSGGSTYYADSVKGRFTISRDNAKNTVYLQMNSLKPEDTAVYYCATRLGRYYRVGFDYWGQGNQVTVSS .
Ans. high polyreactivity

Qu. Name the recorded polyreactivity (PSR sort gate) of the item QVQLVESGGGLVQAGGSLRLSCAASGRIFYLYAMGWYRQAPGKERELVATINSGGSTKYADSVKGRFTISRDNAKNTVYLQMNSLKPEDTAVYYCNAKRWKDYYPYQSWKYGYWGQGTQVTVSS in your answer.
Ans. high polyreactivity

Qu. Specify measured polyreactivity (PSR sort gate) for QVQLVESGGRLVQAVASHRLSCAASGSIFRKYALGCYRQAPGKERELVAAIRSSGGSTYYADSVKGRFTISRDNAKNTVYLQMISLIPEDTAVYYCAARYYRPSRYDYWGQGTQVTVSS .
Ans. high polyreactivity

Qu. Please report the measured polyreactivity (PSR sort gate) for QLQLVDSGGGLVQAGGSLRLSCAASGKTISSYAMGWYRQAPGKEREFVAAISRGARTYYADSVKGRFTISRDNAKNTVYLQMNSLKPEDTAVYYCATRWPHYGGYYYWGQGTQVTVSS
Ans. high polyreactivity

Qu. Please indicate polyreactivity (PSR sort gate) recorded for QVQLVESGGGLGQAGGSLRLSCAASGSTFQIYAMGWYREAPGKEWEFVAAITSSSSTNYADSVKGRFTISRDNAKNTVYLQMNSLKPEDTAVYYCAADVSWRSNWYDYWGQGTQVTVSS
Ans. low polyreactivity

Qu. Return reported polyreactivity (PSR sort gate). Input sequence: QVQLVESGGGLVQAGGSLRLSCAASGSTFVSYAMGWYRQAPGKERELVAGISWSGTRTYYADSVKGRFTISRDNAKNTVYLQMNSLKPEDTAVYYFNAVYKYNYRTLDYWGQGTQVTVSS
Ans. high polyreactivity

Qu. # return recorded polyreactivity (PSR sort gate) for entry QVQLVESGGGLVQAGGSLRLSCAASGSIFSYYAMGWYRQATAKERDLVAAISTSCGNTYYADSVKGRFTISRDNPKNRVYVQMNSLKPEDTAVYYCAAENVWAWFYGYDYWGQGTQVTVSS
Ans. high polyreactivity

Qu. Query polyreactivity (PSR sort gate) for QVQLVESGGGLVQAGGSLRLSCAASGLTFSWYAMGWYRPAPGKERELVAAISSGGSTYYADSVKGRFTISRDNAKNTVYLQMNSLKPEDTAVYYCNAESYYYGFFWSGFRYGYWGQGTQVTVSS
Ans. high polyreactivity
